The following compounds are listed with their measured Plant response rating, Kochia values.
- System: kochia
- test-method-notes: Test A preemergence
- Assay type: in vivo, Bassia scoparia
- test-conditions: 125 g ai/ha, visual injury after 10 days, 0 to 100 scale, 0 is no effect, 100 is complete control
- Description: […]
Give your answer as a number; write no unit.

Take a look at these entries with their results.
1. C[C@H]1CN(C(=O)c2cc(-n3cncn3)ccc2C(F)(F)F)c2cccc(Cl)c2O1 [Compound 70] :: 0
2. Cc1cccc2c1O[C@@H](C)CN2C(=O)c1cccc(-n2cnc(COC(C)C)n2)c1 [Compound 135] :: 0
3. CCC1CN(C(=O)c2cccc(-n3cncn3)c2)c2cccc(Cl)c2O1 (racemic) [Compound 7] :: 40
4. Cc1cccc2c1O[C@@H](C)CN2C(=O)c1cccc(-n2cnc(C(F)(F)F)n2)c1 [Compound 66] :: 10
5. Cc1cccc2c1O[C@@H](C)CN2C(=O)c1cccc(-n2cnc(Cl)n2)c1 [Compound 69] :: 60

I'm curious: which Plant response rating, Kochia was measured for Cc1cccc2c1O[C@@H](C)CN2C(=O)c1cc(-n2cncn2)ccc1F [Compound 50] tested on kochia?
0

Item COc1ccc(-n2cnc(C(C)(C)C)n2)cc1C(=O)N1C[C@H](C)Oc2c(Cl)cccc21 [Compound 83] with kochia - Plant response rating, Kochia?
90

Checklist item: Plant response rating, Kochia tested on kochia, entry Cc1cccc2c1O[C@@H](C)CN2C(=O)c1cccc(-n2cnc(C3CCCCC3)n2)c1 [Compound 82] , value?
0
